- ASSAY EXPLANATION: Cmax in Sprague-Dawley rat at 5 mg/kg, iv by LC-MS/MS analysis
- Format: ADME, organism-based
- Parameters: dose 5 mg/kg, route intravenous
- CONDITION NOTES: in vivo
OBSERVABLE: Cmax (ng/mL)
API: value field is a number in ng/mL; no unit string.

Incoming: Tell us which Cmax value is on record for `C=CC(=O)Nc1cccc(-n2c(=O)cc(C)c3cnc(Nc4ccc(N5CCN(C)CC5)cc4OC)nc32)c1.CS(=O)(=O)O`
Outgoing: 1370

Incoming: Fill in Cmax for record C=CC(=O)Nc1cccc(-n2c(=O)cc(C)c3cnc(Nc4ccc(N5CC(C)N(C)C(C)C5)cc4OC)nc32)c1.CS(=O)(=O)O (stereo unspecified)
Outgoing: 772

Incoming: Let me know recorded Cmax for C=CC(=O)Nc1cc(-n2c(=O)cc(C)c3cnc(Nc4ccc(N5CCN(C)C(C)C5)cc4OC)nc32)cc(C(F)(F)F)c1.CS(=O)(=O)O (stereo unspecified) , thanks.
Outgoing: 259

Incoming: Using known records, supply Cmax for `C=CC(=O)Nc1cc(-n2c(=O)cc(C)c3cnc(Nc4ccc(N5CCN(C)CC5)cc4OC)nc32)cc(C(F)(F)F)c1.CS(=O)(=O)O`
Outgoing: 2460

Incoming: Given C=CC(=O)Nc1cccc(-n2c(=O)cc(C)c3cnc(Nc4ccc(N5CCN(C)C(C)C5)cc4OC)nc32)c1.CS(=O)(=O)O (stereo unspecified) , respond with its Cmax.
Outgoing: 1330

Incoming: Retrieve Cmax measured for C=CC(=O)Nc1cc(-n2c(=O)cc(C)c3cnc(Nc4ccc(N5CC(C)N(C)C(C)C5)cc4OC)nc32)cc(C(F)(F)F)c1.CS(=O)(=O)O (stereo unspecified) and print it.
Outgoing: 592
